Assay: Half-life at pH of 5.5-6.0 at 23 degree Centigrade
Assay type: ADME
Details: pH 5.5
reported property: half-life (h)

1) Br.O=[N+]([O-])c1nccn1CC(O)CNCCBr (stereo not drawn)	0.5
2) C[C@@H](Cl)[C@@H](C)NCC(O)Cn1ccnc1[N+](=O)[O-].Cl (stereo partly drawn)	2

---

Assay: Half-life at pH of 7.0 at 4 degree Centigrade
Type: ADME
Conditions: pH 7
reported property: half-life

1. Cl.O=[N+]([O-])c1nccn1CC(O)CNCCCl (configuration not stated)	~4.67 h
2. Br.C[C@@H](Br)[C@@H](C)NCC(O)Cn1ccnc1[N+](=O)[O-] (some centres not stated)	0.5 h
